Target: HLA-A*03:01 (human)
Experiment: REVEAL MHC-peptide binding assay, recombinant HLA
Conditions: remark: other sources report otherwise
MEASURED_PARAMETER: In Vitro Score (% of positive control peptide)

In [3]: df
Out[3]:
       binder  assay_value
 0  IFWVKRGLK         26.9
 1  WVQRGRKKL          4.9
 2  IIFWVHRGR         30.1
 3  AFIIFWVHR          0.3
 4  IIFWVSRGR         25.3
 5  IFWVQRGAK           17
 6  VAFIIFWVK          1.5
 7  IFWVQRGRK         36.7
 8  AFIIFWVSR          0.3
 9  IFWVHRGRK         37.8
10  IIFWVKRGA         42.9
11  IFWVQRGNK         23.2
12  WVKRGHKKL          1.4
13  IIFWVKRGL         15.9
14  IFWVKRGSK         10.4
15  IFWVARGRK         53.7
16  IIFWVKRGS         16.2
17  IIFWVKRGR         24.3
18  IIFWVKRGN          4.3
19  WVKRGSKKL          1.9
20  IIFWVLRGR          2.8
21  IIFWVQRGA          2.7
22  WVKRGAKKL          4.1
23  IFWVKRGAK           22
24  VAFIIFWVS          0.7
25  WVKRGNKKL          0.9
26  FIIFWVHRG            0
27  IIFWVARGR         18.6
28  WVARGRKKL          1.3
29  IFWVSRGRK         39.2
30  AFIIFWVAR          0.5
31  WVQRGNKKL          1.5
32  IIFWVQRGR           18
